- system_under_test: KDM4B (JMJD2B) (Homo sapiens, UniProt O94953)
- Sequence (O94953 2-500): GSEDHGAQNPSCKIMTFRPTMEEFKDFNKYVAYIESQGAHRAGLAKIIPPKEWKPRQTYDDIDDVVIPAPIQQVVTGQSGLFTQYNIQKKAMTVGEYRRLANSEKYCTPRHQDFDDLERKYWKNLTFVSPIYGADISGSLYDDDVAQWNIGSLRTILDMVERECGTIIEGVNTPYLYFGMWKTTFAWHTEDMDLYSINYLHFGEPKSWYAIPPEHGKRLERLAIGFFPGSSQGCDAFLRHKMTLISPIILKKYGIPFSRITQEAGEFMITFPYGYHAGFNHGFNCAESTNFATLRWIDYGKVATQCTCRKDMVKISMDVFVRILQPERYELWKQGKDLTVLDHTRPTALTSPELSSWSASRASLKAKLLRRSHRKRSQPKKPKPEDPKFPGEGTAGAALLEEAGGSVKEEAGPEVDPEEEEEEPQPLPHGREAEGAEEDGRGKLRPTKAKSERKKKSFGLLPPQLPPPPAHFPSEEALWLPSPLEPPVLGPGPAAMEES
Could you please report measured IC50 for the items listed next?

**Q:** I am curious: what IC50 value has been reported for CC(C#N)NCc1ccnc(CNCCCN(C)C)c1 (centres unmarked) ?
**A:** 250 to 2500 nM

**Q:** Now the same for CN(C)CCNCc1cc(CNC(C#N)C2CC2)ccn1 (centres unmarked)
**A:** > 2500 nM

**Q:** Can you check `CCN(CC)CCCCNCc1cc(CNC(=O)C(F)(F)F)ccn1` next?
**A:** < 250 nM

**Q:** Now try `CCN(CC)CCCCN(Cc1cc(CNC(=O)C(F)(F)F)ccn1)C(=O)C(F)(F)F` .
**A:** < 250 nM

**Q:** Next: `CN(CCCNCc1cc(/C=N/C2CC2)ccn1)Cc1ccccc1`
**A:** < 250 nM

**Q:** Same question for `O=C(CNCc1cc(/C=N/C2CC2)ccn1)N1CCC[C@@H]1CN1CCCC1` please.
**A:** < 250 nM

**Q:** What would you report for `CN(C)CCC/N=C/c1ccnc(CNCCCN(C)C)c1` ?
**A:** 250 to 2500 nM

**Q:** Can you check `CN(C)CCCCCNCc1cc(CN)ccn1` next?
**A:** > 2500 nM

**Q:** Please give the result for CNC(C#N)c1ccnc(CNCCCN(C)C)c1 (centres unmarked) too.
**A:** < 250 nM

**Q:** Try this compound next: CN(C)CC1CCC(CNCc2cc(/C=N/C3CC3)ccn2)CC1 (centres unmarked)
**A:** 250 to 2500 nM

**Q:** Subsequent entry: `CCN(CC)CCCCNC(=O)CNCc1cc(/C=N/C2CC2)ccn1`
**A:** < 250 nM

**Q:** Try the compound `CCN(CC)CCCCNCc1cc(/C=N/CCOC)ccn1`
**A:** < 250 nM

**Q:** Now this one: `COC(=O)CNCc1cc(/C=N/C2CC2)ccn1`
**A:** < 250 nM

**Q:** Next record, please: CCN1CCCC1CNC(=O)CNCc1cc(C=O)ccn1 (centres unmarked)
**A:** < 250 nM

**Q:** Likewise for `CN(C)CCNCc1ccnc(CNCC(=O)N(C)C)c1` ?
**A:** 250 to 2500 nM

**Q:** And the next one, `CN(C)C(=O)CNCc1cc(/C=N/CCCc2ccccc2)ccn1` ?
**A:** > 2500 nM

**Q:** Check `CCN(CCC#N)C(=O)CNCc1cc(/C=N/C2CC2)ccn1` too.
**A:** < 250 nM

**Q:** Likewise for `O=C(CNCc1cc(/C=N/C2CC2)ccn1)N1CCC(Cc2ccccc2)CC1` ?
**A:** < 250 nM

**Q:** Please give the result for CC1CCCCN1CCCNCc1cc(CNC2CC2)ccn1 (centres unmarked) too.
**A:** > 2500 nM

**Q:** And what about the compound CC1CC1/N=C/c1ccnc(CNCC(=O)N(C)C)c1 (centres unmarked) ?
**A:** < 250 nM

**Q:** Another: `CN(C)CCCNCc1cc(CN)ccn1`
**A:** < 250 nM

**Q:** Consider next the compound `CCCNCc1cc(CNC2CC2)ccn1` in the same way.
**A:** < 250 nM

**Q:** Thanks! And `CCN(CCN(C)C)C(=O)CNCc1cc(/C=N/CCO)ccn1` ?
**A:** < 250 nM

**Q:** Same question, `O=Cc1ccnc(CNCC(=O)N2CCC[C@@H]2CN2CCCC2)c1` this time
**A:** 250 to 2500 nM

**Q:** What do you get for `O=Cc1ccnc(CNCCCCN(Cc2ccccc2)C2CC2)c1` ?
**A:** < 250 nM

**Q:** Input `CN(C)CCCCNCc1cc(CNC2CC2)ccn1`
**A:** > 2500 nM

**Q:** Would you mind doing `CN(C)C(=O)CNCc1cc(CNCC#N)ccn1` as well?
**A:** > 2500 nM

**Q:** Now try `COc1ccccc1CN1CCC(NC(=O)CNCc2cc(CN)ccn2)CC1` .
**A:** > 2500 nM

**Q:** Please answer likewise for `CCN(CC)CCCCNCc1cc(/C=N/CCO)ccn1`
**A:** < 250 nM
